- method: yeast display, Sf9 membrane polyspecificity reagent, FACS + sequencing; frameworks hold sequencing errors
experimentalEndpoint: polyreactivity (PSR sort gate)

Examples from the recorded data:
QVQHEESGGGLVQAGGSLRLSCAASGSIFSDYALGWYRPAPGKERELVAAITINGGSTYYADSVKGRFTISRDNAKITVYLQLNSLKPEDTAVEYCNAGWGRLYDYWGQGTQVTVSS: low polyreactivity
QVQLVESGGGLVQAGGSLRLSCAASGSIFYPNAMGWYRQAPGKERELVAAISIGGGRTYYADSVKGRFTISRDNAKNTVYLQMNSLKPEDTAVYYCAATRVDSDDRTRFYYWGQGTQVTVSS: high polyreactivity
QVQLVESGGGLVQSGGSLRLSCAASGLTFMVYAMGWYRQAPGKEREFVAAITFSGGRTYYADSVKGRFTISRDNAKNTVYLQMNSLKPEDTAVYYCNAEAWSLGYDYWGQGTQVTVSS: low polyreactivity
QVQLVESGGGLVHAGGSLRLSCAASGGIFGYYTMGWYRQAPGKERELVAAITWRGSTYYADSVKGRFTISRDNAKNTVYLQMNSLKPEDTAVYYCAARYYSPYGYWGQGTQVTVSS: high polyreactivity
QVQQQESGGGLVQAGGSLRLSCAASGTIFQLTVMGRYRQAPGKERELVASIDYGGNTNYADSVKGRFTISRDNAKNTVYLQMNSLKPEDTAVYYCAASSDSWTTHPYWGQGTQGTVSS: low polyreactivity

INPUT: Provide one value: measured polyreactivity (PSR sort gate) of QVQLVESGGGLVQAGGSLRLSCAASGSIFRYYAMGLYRQAPGKERVLVAAFSGSGGITLYADSVKVRFSISRDNAKNTVYLQMNCLKPEDTAVYFCATRPGTRPAYDYWGQGTQVTVSS
OUTPUT: high polyreactivity

INPUT: Provide one value: measured polyreactivity (PSR sort gate) of QVQLVESGGGLVQAGGSLRLSCAASGTTFGYNAMGWYRQAPGKERELVAAITSGGSTNYADSVKGRFTISRDNAKNTVYLQMNSLKPEDTAVYYCDKRGYYHYYWGQGTQVTVSS
OUTPUT: high polyreactivity

INPUT: Provide one value: measured polyreactivity (PSR sort gate) of QVQLVESGGGLVQAGGSLRLSSAASGFIFATYAMGWYRQAPGTERELVAAISQSGGGTYYADSVKGRFTISRDNAKNTVYLQMNSLKPEDTAVYYCAVDVSEWYHYDLYYWYYYWGQGTQVTVSS
OUTPUT: high polyreactivity

INPUT: Provide one value: measured polyreactivity (PSR sort gate) of QVQLVDSGGGLVQAGGSLRLSCPASGIIIARNTMGWYRQAPGKERELVAAISTRGTTTYYADSVKGRFTISRDNAKNTVYLQMNSLKPEDTAVYSCAAFRVHTDRYNYWGQGTQVTVSS
OUTPUT: high polyreactivity

Every entry's value here was drawn from the nanobody polyreactivity screen of Harvey et al. (2022).
